- ASSAY SYSTEM: Histone deacetylase 4 (Homo sapiens, UniProt P56524)
- Sequence (P56524 whole entry): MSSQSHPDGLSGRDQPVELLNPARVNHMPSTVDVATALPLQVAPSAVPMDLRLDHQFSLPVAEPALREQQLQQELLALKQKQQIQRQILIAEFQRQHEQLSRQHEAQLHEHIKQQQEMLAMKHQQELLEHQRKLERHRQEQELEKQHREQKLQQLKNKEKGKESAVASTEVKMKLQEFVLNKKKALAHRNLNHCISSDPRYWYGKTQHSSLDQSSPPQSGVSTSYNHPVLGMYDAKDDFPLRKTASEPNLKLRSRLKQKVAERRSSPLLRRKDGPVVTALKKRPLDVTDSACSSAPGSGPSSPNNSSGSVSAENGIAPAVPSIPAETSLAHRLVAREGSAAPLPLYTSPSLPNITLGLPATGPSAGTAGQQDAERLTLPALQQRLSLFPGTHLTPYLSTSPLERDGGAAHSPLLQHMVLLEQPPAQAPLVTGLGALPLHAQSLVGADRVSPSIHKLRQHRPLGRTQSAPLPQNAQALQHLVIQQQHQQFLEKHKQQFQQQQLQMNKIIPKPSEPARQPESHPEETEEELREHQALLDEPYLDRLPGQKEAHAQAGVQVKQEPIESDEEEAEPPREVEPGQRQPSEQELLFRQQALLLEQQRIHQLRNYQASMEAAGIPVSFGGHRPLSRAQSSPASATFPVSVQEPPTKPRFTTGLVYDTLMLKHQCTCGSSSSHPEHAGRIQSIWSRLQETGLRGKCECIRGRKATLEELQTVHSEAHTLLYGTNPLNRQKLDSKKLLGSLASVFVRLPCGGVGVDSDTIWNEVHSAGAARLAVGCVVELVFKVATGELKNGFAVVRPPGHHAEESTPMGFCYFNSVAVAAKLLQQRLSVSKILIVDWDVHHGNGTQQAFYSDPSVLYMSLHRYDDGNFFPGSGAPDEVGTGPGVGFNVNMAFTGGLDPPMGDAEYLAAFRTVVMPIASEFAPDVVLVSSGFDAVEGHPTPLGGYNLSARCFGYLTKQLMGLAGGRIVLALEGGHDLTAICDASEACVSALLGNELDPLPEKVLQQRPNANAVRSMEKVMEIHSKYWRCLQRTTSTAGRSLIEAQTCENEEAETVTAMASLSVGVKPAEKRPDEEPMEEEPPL
- TEST DETAILS: Inhibition of wild type HDAC4 expressed in Escherichia coli
MEASURED ENDPOINT: IC50 (nM)

>>> measured_value("CCOC(=O)c1ccc(C(=O)C(F)(F)F)o1")
2500
>>> measured_value("C[C@@H](NC(=O)c1ccc(C(=O)C(F)(F)F)s1)c1ccccc1")
76
>>> measured_value("O=C(c1ccc(C(=O)N2CCc3ccccc32)s1)C(F)F")
7600
>>> measured_value("CN(Cc1ccc2nccnc2c1)C(=O)c1ccc(C(=O)C(F)(F)F)s1")
98
>>> measured_value("O=C(NCCc1ccccc1)c1ccc(C(=O)C(F)(F)F)s1")
330
>>> measured_value("O=C(c1ccc(C(=O)C(F)(F)F)s1)N1CCn2c(-c3ccccc3)cnc2C1")
320
>>> measured_value("CN(Cc1ccccc1)C(=O)c1cnc(C(=O)C(F)(F)F)s1")
760
>>> measured_value("C[C@@H](NCc1ccc(C(=O)C(F)(F)F)s1)c1ccccc1")
3700
>>> measured_value("O=C(c1ccc(C(=O)C(F)(F)F)s1)N1CCc2ccccc21")
130
>>> measured_value("CN(Cc1ccccc1)C(=O)c1ccc(C(=O)C(F)(F)F)s1")
510
>>> measured_value("COc1ccc(COCc2ccc(C(=O)C(F)(F)F)s2)cc1")
5500
>>> measured_value("CN(Cc1ccccc1)S(=O)(=O)c1csc(C(=O)C(F)(F)F)c1")
9400
>>> measured_value("C[C@H](NC(=O)c1ccc(C(=O)C(F)(F)F)s1)c1ccccc1")
170
>>> measured_value("CN(Cc1ccccc1)C(=O)c1cc(C(=O)C(F)(F)F)cs1")
1700
>>> measured_value("CN(Cc1ccccc1)Cc1ccc(C(=O)C(F)(F)F)s1")
970

###

- System: Histone deacetylase 4 (Homo sapiens), P56524 [H976Y]
- Sequence (P56524 whole entry H976Y): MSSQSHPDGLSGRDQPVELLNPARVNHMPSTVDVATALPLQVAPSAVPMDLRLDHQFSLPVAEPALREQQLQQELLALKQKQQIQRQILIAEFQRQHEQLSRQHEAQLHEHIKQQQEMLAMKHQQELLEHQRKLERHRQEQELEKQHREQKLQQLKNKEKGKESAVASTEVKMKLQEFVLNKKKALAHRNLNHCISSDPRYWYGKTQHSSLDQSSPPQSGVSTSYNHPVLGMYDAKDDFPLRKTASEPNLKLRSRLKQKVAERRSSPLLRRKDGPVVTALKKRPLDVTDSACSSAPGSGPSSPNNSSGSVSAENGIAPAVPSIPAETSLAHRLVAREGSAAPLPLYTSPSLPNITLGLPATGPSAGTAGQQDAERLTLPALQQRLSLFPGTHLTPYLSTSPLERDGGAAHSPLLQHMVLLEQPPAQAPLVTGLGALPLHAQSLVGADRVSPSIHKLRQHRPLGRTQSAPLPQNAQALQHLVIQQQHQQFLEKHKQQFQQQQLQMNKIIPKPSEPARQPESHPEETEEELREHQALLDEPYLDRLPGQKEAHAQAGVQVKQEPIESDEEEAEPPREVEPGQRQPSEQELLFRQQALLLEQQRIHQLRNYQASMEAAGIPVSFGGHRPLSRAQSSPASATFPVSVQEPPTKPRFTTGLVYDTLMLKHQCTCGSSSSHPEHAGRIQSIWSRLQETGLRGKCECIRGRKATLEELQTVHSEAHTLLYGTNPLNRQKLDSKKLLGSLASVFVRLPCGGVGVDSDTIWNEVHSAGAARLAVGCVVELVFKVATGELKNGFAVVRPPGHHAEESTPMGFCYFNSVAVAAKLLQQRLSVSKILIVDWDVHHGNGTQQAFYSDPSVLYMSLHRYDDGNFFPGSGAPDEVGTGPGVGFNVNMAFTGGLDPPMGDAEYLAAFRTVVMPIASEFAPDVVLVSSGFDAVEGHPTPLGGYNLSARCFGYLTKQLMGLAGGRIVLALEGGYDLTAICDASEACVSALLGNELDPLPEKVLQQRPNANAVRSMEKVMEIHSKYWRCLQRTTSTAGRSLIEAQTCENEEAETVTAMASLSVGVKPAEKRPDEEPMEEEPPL
- TEST DETAILS: Inhibition of HDAC4GOF mutant at 10 uM
Active and inactive are the calls of the source. The rule behind the calls is not given here.
MEASURED ENDPOINT: Activity

>>> measured_value("CN(Cc1ccccc1)S(=O)(=O)c1csc(C(=O)C(F)(F)F)c1")
"inactive"
>>> measured_value("O=C(NCC1CCCCC1)c1cccc(C(=O)C(F)(F)F)c1")
"inactive"
>>> measured_value("O=C(c1ccc(B(O)O)s1)N1CCc2ccccc21")
"inactive"
>>> measured_value("CC(=O)c1ccc(C(=O)N[C@H](C)c2ccccc2)s1")
"inactive"
>>> measured_value("CN(Cc1ccc2nccnc2c1)C(=O)c1ccc(C(=O)O)s1")
"inactive"

###

Hi! I'm sharing some pIC50 results obtained with Histone deacetylase 1 (Homo sapiens).
Sequence (Q13547 whole entry): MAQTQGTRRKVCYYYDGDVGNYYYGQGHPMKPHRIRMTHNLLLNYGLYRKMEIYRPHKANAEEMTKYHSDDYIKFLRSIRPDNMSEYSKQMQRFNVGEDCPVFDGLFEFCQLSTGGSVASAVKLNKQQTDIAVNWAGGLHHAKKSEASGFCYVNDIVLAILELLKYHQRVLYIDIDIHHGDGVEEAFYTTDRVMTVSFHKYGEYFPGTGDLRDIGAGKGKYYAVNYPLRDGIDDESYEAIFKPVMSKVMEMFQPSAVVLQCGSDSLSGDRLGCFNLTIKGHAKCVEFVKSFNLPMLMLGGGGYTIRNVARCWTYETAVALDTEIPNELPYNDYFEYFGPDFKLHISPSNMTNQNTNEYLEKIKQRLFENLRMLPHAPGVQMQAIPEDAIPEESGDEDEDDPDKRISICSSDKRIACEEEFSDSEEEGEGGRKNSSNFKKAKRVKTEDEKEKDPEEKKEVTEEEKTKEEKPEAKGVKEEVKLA
pIC50: −log10 of the molar value.
MEASURED ENDPOINT: pIC50

>>> measured_value("CN(Cc1ccc2nccnc2c1)C(=O)c1ccc(C(=O)C(F)(F)F)s1")
6.24
>>> measured_value("O=C(c1ccc(C(=O)C(F)(F)F)s1)N1CCc2ccccc21")
5.70
>>> measured_value("O=C(c1ccc(C(=O)N2CCc3ccccc32)s1)C(F)F")
5.01
>>> measured_value("C[C@H](NC(=O)c1ccc(C(=O)C(F)(F)F)s1)c1ccccc1")
5.28
>>> measured_value("CCOC(=O)c1ccc(C(=O)C(F)(F)F)s1")
5.24
>>> measured_value("CCNC(=O)c1ccc(C(=O)C(F)(F)F)s1")
5.15
>>> measured_value("C[C@@H](NC(=O)c1ccc(C(=O)C(F)(F)F)s1)c1ccccc1")
6.49

###

- ASSAY SYSTEM: Tubulin
- TEST DETAILS: Inhibition of tubulin deacetylation in human HCT116 cells
- CONDITION: hct-116
MEASURED ENDPOINT: IC50 (µM)

>>> measured_value("CN(Cc1ccc2nccnc2c1)C(=O)c1ccc(C(=O)C(F)(F)F)s1")
12

###

- ASSAY SYSTEM: Histone deacetylase 4 (Homo sapiens, UniProt P56524, H976Y)
- Sequence (P56524 whole entry H976Y): as the sequence (P56524 whole entry H976Y) above
- TEST DETAILS: Inhibition of HDAC4GOF mutant expressed in Escherichia coli
Field: label. Allowed values: yes (IC50 < 400 nM) or no (IC50 >= 400 nM).

>>> cat("O=C(NCC1CCCCC1)c1cc(C(=O)C(F)(F)F)cs1")
"no"
>>> cat("C[C@@H](NC(=O)c1ccc(C(=O)NO)s1)c1ccccc1")
"yes"
>>> cat("COc1ccc(COCc2ccc(C(=O)C(F)(F)F)s2)cc1")
"no"
>>> cat("C[C@@H](NCc1ccc(C(=O)C(F)(F)F)s1)c1ccccc1")
"no"
>>> cat("CCOC(=O)c1ccc(C(=O)C(F)(F)F)o1")
"no"
>>> cat("C[C@H](NC(=O)c1ccc(C(=O)C(F)(F)F)s1)c1ccccc1")
"yes"
>>> cat("CN(Cc1ccccc1)C(=O)c1cnc(C(=O)C(F)(F)F)s1")
"no"
>>> cat("CN(Cc1ccccc1)Cc1ccc(C(=O)C(F)(F)F)s1")
"no"
>>> cat("O=C(c1ccc(C(=O)N2CCc3ccccc32)s1)C(F)F")
"no"
>>> cat("CCNC(=O)c1ccc(C(=O)C(F)(F)F)s1")
"no"
>>> cat("O=C(NCC1CCCCC1)c1ccc(C(=O)C(F)(F)F)s1")
"yes"
>>> cat("O=C(NCCc1ccccc1)c1ccc(C(=O)C(F)(F)F)s1")
"yes"
>>> cat("C[C@@H](NC(=O)c1ccc(C(=O)C(F)(F)F)s1)c1ccccc1")
"yes"
>>> cat("CN(Cc1ccccc1)S(=O)(=O)c1ccc(C(=O)C(F)(F)F)s1")
"no"
>>> cat("CN(Cc1ccc2nccnc2c1)C(=O)c1ccc(C(=O)C(F)(F)F)s1")
"yes"
>>> cat("O=C(c1ccc(C(=O)C(F)(F)F)s1)N1CCc2ccccc21")
"yes"
>>> cat("O=C(c1ccc(C(=O)C(F)(F)F)s1)N1CCn2c(-c3ccccc3)cnc2C1")
"yes"
>>> cat("CCOC(=O)c1ccc(C(=O)C(F)(F)F)s1")
"yes"
>>> cat("O=C(NCC1CCCCC1)c1cnc(C(=O)C(F)(F)F)s1")
"no"
>>> cat("CN(Cc1ccccc1)C(=O)c1ccc(C(=O)C(F)(F)F)s1")
"yes"
>>> cat("COc1ccc(CNC(=O)c2ccc(C(=O)C(F)(F)F)s2)cc1")
"yes"
>>> cat("CN(Cc1ccccc1)C(=O)c1cc(C(=O)C(F)(F)F)cs1")
"no"

###

Parameter 'readout' = log10(IC50); parameter 'system' = Histone deacetylase 3 (Homo sapiens).
Sequence (O15379 whole entry): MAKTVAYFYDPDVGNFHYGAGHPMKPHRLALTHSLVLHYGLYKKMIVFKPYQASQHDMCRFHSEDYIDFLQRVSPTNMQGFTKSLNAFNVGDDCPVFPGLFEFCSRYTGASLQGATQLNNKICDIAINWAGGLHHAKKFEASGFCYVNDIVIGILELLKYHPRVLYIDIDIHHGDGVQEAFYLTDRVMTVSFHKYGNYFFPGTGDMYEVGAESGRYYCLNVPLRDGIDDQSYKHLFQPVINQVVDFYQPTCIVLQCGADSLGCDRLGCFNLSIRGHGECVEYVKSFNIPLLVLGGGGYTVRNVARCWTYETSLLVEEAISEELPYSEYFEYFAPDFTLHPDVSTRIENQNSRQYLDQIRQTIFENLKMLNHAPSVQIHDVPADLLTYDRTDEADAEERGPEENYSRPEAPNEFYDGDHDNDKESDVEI
MEASURED ENDPOINT: log10(IC50) (log10 of the value in µM)

>>> measured_value("CN(Cc1ccc2nccnc2c1)C(=O)c1ccc(C(=O)C(F)(F)F)s1")
-0.17
>>> measured_value("C[C@H](NC(=O)c1ccc(C(=O)C(F)(F)F)s1)c1ccccc1")
0.97
>>> measured_value("CN(Cc1ccccc1)C(=O)c1ccc(C(=O)C(F)(F)F)s1")
0.08
>>> measured_value("O=C(NCCc1ccccc1)c1ccc(C(=O)C(F)(F)F)s1")
0.23
>>> measured_value("O=C(NCC1CCCCC1)c1cnc(C(=O)C(F)(F)F)s1")
0.88
>>> measured_value("CN(Cc1ccccc1)Cc1ccc(C(=O)C(F)(F)F)s1")
0.66
>>> measured_value("C[C@@H](NC(=O)c1ccc(C(=O)C(F)(F)F)s1)c1ccccc1")
-0.64
>>> measured_value("O=C(c1ccc(C(=O)C(F)(F)F)s1)N1CCc2ccccc21")
0.23
>>> measured_value("C[C@@H](NC(=O)c1ccc(C(=O)NO)s1)c1ccccc1")
-2.00
>>> measured_value("O=C(NCC1CCCCC1)c1ccc(C(=O)C(F)(F)F)s1")
0.49
